I'd appreciate it if you could supply IC50 values for the items below.
- assayed-system: KRas-mediated phosphorylation of ERK in A549 cells (Homo sapiens, UniProt P01116, G12S)
- Construct: pERK HTRF read-out
- Sequence (P01116 1-188 isoform P01116-2 G12S): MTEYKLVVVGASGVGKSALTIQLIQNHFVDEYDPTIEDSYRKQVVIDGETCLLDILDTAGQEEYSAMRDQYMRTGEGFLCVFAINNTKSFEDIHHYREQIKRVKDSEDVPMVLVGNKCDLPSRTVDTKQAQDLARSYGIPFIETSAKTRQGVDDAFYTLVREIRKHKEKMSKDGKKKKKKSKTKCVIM
- protocol: Inhibition of KRas-mediated phosphorylation of ERK (HTRF), A549 cells
- Assay type: cell-based
- experimental-parameters: HTRF pERK, 3 h incubation

Find the measured IC50 of CC(=O)N(C)C(=O)C1CCN(c2nc(OC[C@@]34CCCN3C[C@H](F)C4)nc3c(F)c(-c4ccc(F)c5sc(N)c(C#N)c45)c(Cl)cc23)CC1 [Example 254] with KRas-mediated phosphorylation of ERK in A549 cells (Homo sapiens, UniProt P01116, G12S) as test system.
5 nM

Find the measured IC50 of CN(C(=O)C1CCN(c2nc(OC[C@@]34CCCN3C[C@H](F)C4)nc3c(F)c(-c4ccc(F)c5sc(N)c(C#N)c45)c(Cl)cc23)CC1)c1cccnc1 [Example 289] with KRas-mediated phosphorylation of ERK in A549 cells (Homo sapiens, UniProt P01116, G12S) as test system.
271 nM

Find the measured IC50 of CCc1c(F)ccc2cc(O)cc(-c3ncc4c(N5CCN(C(=O)n6nccn6)CC5)nc(OC[C@@]56CCCN5C[C@H](F)C6)nc4c3F)c12 (single isomer, unassigned) [Example 152] with KRas-mediated phosphorylation of ERK in A549 cells (Homo sapiens, UniProt P01116, G12S) as test system.
2180 nM

Find the measured IC50 of COCC(=O)N(C)C(=O)CCCN(C)c1nc(OC[C@@]23CCCN2C[C@H](F)C3)nc2c(F)c(-c3ccc(F)c4sc(N)c(C#N)c34)c(Cl)cc12 [Example 307] with KRas-mediated phosphorylation of ERK in A549 cells (Homo sapiens, UniProt P01116, G12S) as test system.
5 nM

Find the measured IC50 of CCc1c(F)ccc2cc(O)cc(-c3ncc4c(N5CC[C@H]6[C@@H](C5)[C@H]6C(=O)n5ccc(C)n5)nc(OC[C@@]56CCCN5C[C@H](F)C6)nc4c3F)c12 (stereo in doubt) [Example 99] with KRas-mediated phosphorylation of ERK in A549 cells (Homo sapiens, UniProt P01116, G12S) as test system.
54 nM

Ref: patent US20260356856A1
